compound: O=C(/C=C/c1ccc(C(F)(F)F)cc1)C(F)(F)C(=O)/C=C/c1ccc(C(F)(F)F)cc1 [compound 21 of FIG. 2]
melting point: 75 to 76 °C
--
compound: COc1cc(/C=C/C(=O)/C(F)=C(O)/C=C/c2ccc(O)c(OC)c2)ccc1O [compound 4 of FIG. 2]
melting point: 154 to 155 °C
--
compound: O=C(/C=C/c1ccc(F)cc1)/C(F)=C(O)/C=C/c1ccc(F)cc1 [compound 13 of FIG. 2]
melting point: 152 to 153 °C
--
compound: COc1cc(F)c(/C=C/C(=O)/C=C(O)\C=C\c2cc(OC)c(OC)cc2F)cc1OC [compound 15 of FIG. 2]
melting point: 154 to 156 °C
--
compound: FC(F)(F)Sc1ccc(C=Cc2cc(C=Cc3ccc(SC(F)(F)F)cc3)on2)cc1 [compound 30 of FIG. 43]
melting point: 165 to 167 °C
--
compound: Fc1ccc(C=Cc2cc(C=Cc3ccc(F)cc3)n(-c3cccc(C(F)(F)F)c3)n2)cc1 [compound 33 of FIG. 43]
melting point: 98 to 100 °C
--
compound: FC(F)(F)Sc1ccc(C=Cc2cc(C=Cc3ccc(SC(F)(F)F)cc3)n(-c3cccc(C(F)(F)F)c3)n2)cc1 [compound 29 of FIG. 43]
melting point: 121 to 122 °C
--
compound: COc1cc(F)c(C=Cc2cc(C=Cc3cc(OC)c(OC)cc3F)n(-c3ccccc3)n2)cc1OC [compound 22 of FIG. 43]
melting point: 142 to 144 °C
--
compound: O=C(/C=C/c1ccc(C(F)(F)F)cc1)/C(F)=C(O)/C=C/c1ccc(C(F)(F)F)cc1 [compound 22 of FIG. 2]
melting point: 144 to 146 °C

---

compound: O=C(/C=C/c1cccc(OC(F)(F)F)c1)/C=C(O)\C=C\c1cccc(OC(F)(F)F)c1 [compound 15 of FIG. 35]
melting point: 68 to 70 °C
//
compound: O=C(/C=C/c1ccc(C(F)(F)F)cc1)/C=C(O)\C=C\c1ccc(C(F)(F)F)cc1 [compound 20 of FIG. 2]
melting point: 153 to 154 °C
//
compound: O=C(/C=C/c1ccc(OCc2ccccc2)c(OCc2ccccc2)c1)/C=C(O)\C=C\c1ccc(OCc2ccccc2)c(OCc2ccccc2)c1 [compound 5 of FIG. 35]
melting point: 150 to 153 °C
//
compound: O=C(/C=C/c1ccc(OC(F)(F)F)cc1)/C=C(O)\C=C\c1ccc(OC(F)(F)F)cc1 [compound 17 of FIG. 35]
melting point: 108 to 111 °C
//
compound: COc1cc(F)c(/C=C/C(=O)C(F)C(=O)/C=C/c2cc(OC)c(OC)cc2F)cc1OC [compound 18 of FIG. 2]
melting point: > 260 °C
//
compound: COc1cc(F)c(/C=C/C(=O)C(F)(F)C(=O)/C=C/c2cc(OC)c(OC)cc2F)cc1OC [compound 16 of FIG. 2]
melting point: 162 to 163 °C
//
compound: COc1cc(C=Cc2cc(C=Cc3cc(OC)c(OC)c(OC)c3)n(-c3ccccc3)n2)cc(OC)c1OC [compound 41 of FIG. 43]
melting point: 144 to 146 °C
//
compound: O=C(/C=C/c1ccc(F)cc1)C(F)(F)C(=O)/C=C/c1ccc(F)cc1 [compound 12 of FIG. 2]
melting point: 72 to 73 °C
//
compound: Fc1ccc(C=Cc2cc(C=Cc3ccc(F)cc3)n(-c3ccccc3)n2)cc1 [compound 31 of FIG. 43]
melting point: 109 to 111 °C
//
compound: N#Cc1ccc(-n2nc(C=Cc3ccc(F)cc3)cc2C=Cc2ccc(F)cc2)cc1 [compound 35 of FIG. 43]
melting point: 209 to 211 °C
//
compound: COc1ccc(C=Cc2cc(C=Cc3ccc(OC)c(OC)c3OC)on2)c(OC)c1OC [compound 40 of FIG. 43]
melting point: 136 to 137 °C
//
compound: O=C(/C=C/c1ccc(F)c(F)c1F)/C=C(O)\C=C\c1ccc(F)c(F)c1F [compound 21 of FIG. 35]
melting point: 156 to 158 °C
//
compound: COc1cc(F)c(C=Cc2cc(C=Cc3cc(OC)c(OC)cc3F)n(-c3cccc(C(F)(F)F)c3)n2)cc1OC [compound 24 of FIG. 43]
melting point: 130 to 134 °C
//
compound: COc1cc(F)c(/C=C/C(=O)/C(F)=C(O)/C=C/c2cc(OC)c(OC)cc2F)cc1OC [compound 17 of FIG. 2]
melting point: 148 to 150 °C

---

pIC50 reference
test system: MOLT-4; experiment: In vitro cell viability bioassay, CellTiter-Glo, MOLT-4; assay type: cell-based, human; conditions: Table 5; repeats Table 3; read-out: Leukemia MOLT-4 IC50
pIC50: −log10 of the molar value.

compound: COc1ccc(/C=C/C(=O)C=C(O)/C=C/c2ccc(OC)c(OC)c2)cc1OC [drawing 83]
pIC50: 7.37

compound: COc1cc(/C=C/C(=O)C=C(O)/C=C/c2ccc(O)c(OC)c2)ccc1O [drawing 82]
pIC50: 4.72

compound: COc1ccc(/C=C/C2=CC(/C=C/c3ccc(OC)c(OC)c3)=[O+][B-](F)(F)O2)cc1OC [drawing 84]
pIC50: 9.25

compound: COc1ccc(/C=C/C(=O)C(F)=C(O)/C=C/c2ccc(OC)c(OC)c2)cc1OC [drawing 85]
pIC50: 7.12

compound: COc1cc(F)c(/C=C/C2=CC(/C=C/c3cc(OC)c(OC)cc3F)=[O+][B-](F)(F)O2)cc1OC [drawing 86]
pIC50: 8.00

---

tested on: PBMC; assay: Cell viability assay (CellTiter-Glo 2.0), PBMC from healthy donors; assay type: cell-based; settings: Homo sapiens, Table 7, run number 2, 72 h

compound: CC(C)C[C@H](NC(=O)[C@H](Cc1ccccc1)NC(=O)c1cnccn1)B(O)O [Bortezomib]
EC50: 60.5 nM

---

This section presents compounds with their documented melting point values.
measured.endpoint: melting point

molecule: COc1cc(F)c(C=Cc2cc(C=Cc3cc(OC)c(OC)cc3F)n(-c3ccc(OC(F)(F)F)cc3)n2)cc1OC
result: 80 to 83 °C
//
molecule: COc1cc(C=Cc2cc(C=Cc3cc(OC)c(OC)c(OC)c3)n(-c3ccc(OC(F)(F)F)cc3)n2)cc(OC)c1OC
result: 140 to 142 °C
//
molecule: Fc1ccc(C=Cc2cc(C=Cc3ccc(F)cc3)n(-c3ccc(OC(F)(F)F)cc3)n2)cc1
result: 155 to 156 °C
//
molecule: COc1cc(F)c(C=Cc2cc(C=Cc3cc(OC)c(OC)cc3F)n(-c3ccc(C#N)cc3)n2)cc1OC
result: 91 to 93 °C
//
molecule: O=C(/C=C/c1cc2ccccc2o1)/C=C(O)\C=C\c1cc2ccccc2o1
result: 178 to 180 °C
//
molecule: COc1ccc(/C=C/C(=O)C(F)(F)C(=O)/C=C/c2ccc(OC)c(OC)c2)cc1OC
result: 148 to 149 °C
//
molecule: COc1cc(F)c(C=Cc2cc(C=Cc3cc(OC)c(OC)cc3F)n(-c3cc(F)cc(F)c3)n2)cc1OC
result: 115 to 117 °C
//
molecule: FC(F)(F)c1ccc(C=Cc2cc(C=Cc3ccc(C(F)(F)F)cc3)n(-c3ccccc3)n2)cc1
result: 137 to 139 °C
//
molecule: COc1ccc(/C=C/C(=O)/C(F)=C(O)/C=C/c2ccc(OC)c(OC)c2)cc1OC
result: 145 to 146 °C
//
molecule: FC(F)(F)Sc1ccc(C=Cc2cc(C=Cc3ccc(SC(F)(F)F)cc3)n(-c3ccccc3)n2)cc1
result: 119 to 121 °C
//
molecule: COc1ccc(/C=C/C(=O)/C=C(O)\C=C\c2ccc(OC)c(OCc3ccccc3)c2)cc1OCc1ccccc1
result: 153 to 155 °C
//
molecule: Fc1ccc(C=Cc2cc(C=Cc3ccc(F)cc3)n(-c3ccc(F)c(F)c3)n2)cc1
result: 169 to 170 °C
//
molecule: O=C(/C=C/c1csc2ccccc12)/C=C(O)\C=C\c1csc2ccccc12
result: 159 to 160 °C
//
molecule: COc1ccc(/C=C/C(=O)/C=C(O)\C=C\c2ccc(OC)c(OC)c2OC)c(OC)c1OC
result: 104 to 106 °C

---

Test system: RPMI8226
Test: Cell viability assay to determine EC50 (CellTiter-Glo 2.0), RPMI8226
Assay type: cell-based
Conditions: Homo sapiens, RPMI-8226; Table 7, run number 2; 72 h
Procedure: RPMI-8266 (Multiple myeloma cell line, MM) and PBCMs cells were seeded into 384-well culture plates at 2×10^3 cell/well in quadruplicate, and incubated at 5% CO2, 37° C. The culture media was replaced with compounds (ranges from 0-10,000 nM) and incubated for 72 h. […] Cell lines and PBCMs (peripheral blood mononuclear cells from healthy donors as non-cancer CONTROL) were seeded in quadruplicate (technical replicates). […] Luminescent signal/intensity from the 384-well plate was read on a plate reader. […]

compound: CC(C)C[C@H](NC(=O)[C@H](Cc1ccccc1)NC(=O)c1cnccn1)B(O)O [Bortezomib]
EC50: 10.6 nM
